Consider the following binders and their measured Kd readings.
# measured_target: T1, huCTLA4 (antigen of the Octet experiments) (human, UniProt P16410 37-162, limits assumed)
# T1 construct: Construct of the soluble antigen not described; also called the antigen
# T1 sequence (P16410 37-162 limits assumed): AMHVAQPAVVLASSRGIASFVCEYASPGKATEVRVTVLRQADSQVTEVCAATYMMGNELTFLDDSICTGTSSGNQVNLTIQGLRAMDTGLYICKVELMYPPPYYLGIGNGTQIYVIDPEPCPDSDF
# assay_protocol: BLI (Octet Red96), antibody on anti-hIgG Fc biosensor, huCTLA4 in solution, 1:1 fit

binder | endpoint_unit | Kd
Humanized HC3 + LC3 (PP4638) (antibody, IgG1, V domains shown, Humanized L3D10; also called H3108 + L3108) VH: QVQLQESGPGLVKPSETLSLTCTVSGFSLTSYGLSWIRQPPGKGLEWIGYIWYDGNTNFHSPLKSRVTISVDTSKNQFSLKLSSVTAADTAVYYCAKTEGHYYGSNYGYYALDYWGQGTLVTVSS VL: DIQMTQSPSSLSASVGDRVTITCRASENIYSNLAWYQQKPGKAPKLLIYAATSLQSGVPSRFSGSGSGTDFTLTISSLQPEDFATYYCQHLWGTPYTFGGGTKVEIK | nM | 8.1
Humanized HC2 + LC1 (PP4633) (antibody, IgG1, V domains shown, Humanized L3D10; also called H3107 + L3106) VH: QVQLQESGPGLVKPSETLSLTCTVSGFSLTSYGLSWIRQPPGKGLEWIGYIWYDGNTNFHSSLKSRVTISKDTSKSQVSLKLSSVTAADTAVYYCAKTEGHYYGSNYGYYALDYWGQGTLVTVSS VL: DIQMTQSPSSLSASVGDRVTITCRASENIYSNLAWYQQKPGKAPKLLLYAATNLQSGVPSRFSGSGSGTDFTLTISSLQPEDFATYYCQHLWGTPYTFGGGTKLEIK | nM | 7.1
Humanized HC3 + LC1 (PP4636) (antibody, IgG1, V domains shown, Humanized L3D10; also called H3108 + L3106) VH: QVQLQESGPGLVKPSETLSLTCTVSGFSLTSYGLSWIRQPPGKGLEWIGYIWYDGNTNFHSPLKSRVTISVDTSKNQFSLKLSSVTAADTAVYYCAKTEGHYYGSNYGYYALDYWGQGTLVTVSS VL: DIQMTQSPSSLSASVGDRVTITCRASENIYSNLAWYQQKPGKAPKLLLYAATNLQSGVPSRFSGSGSGTDFTLTISSLQPEDFATYYCQHLWGTPYTFGGGTKLEIK | nM | 8.7
Humanized HC1 + LC1 (PP4630) (antibody, IgG1, V domains shown, Humanized L3D10; also called H3106 + L3106) VH: QVQLQESGPGLVKPSETLSLTCTVSGFSLTSYGLSWIRQPPGKGLEWIGYIWYDGNTNFHPSLKSRVTISKDTSKNQFSLKLSSVTAADTAVYYCAKTEGHYYGSNYGYYALDYWGQGTSVTVSS VL: DIQMTQSPSSLSASVGDRVTITCRASENIYSNLAWYQQKPGKAPKLLLYAATNLQSGVPSRFSGSGSGTDFTLTISSLQPEDFATYYCQHLWGTPYTFGGGTKLEIK | nM | 13
Humanized HC2 + LC3 (PP4635) (antibody, IgG1, V domains shown, Humanized L3D10; also called H3107 + L3108) VH: QVQLQESGPGLVKPSETLSLTCTVSGFSLTSYGLSWIRQPPGKGLEWIGYIWYDGNTNFHSSLKSRVTISKDTSKSQVSLKLSSVTAADTAVYYCAKTEGHYYGSNYGYYALDYWGQGTLVTVSS VL: DIQMTQSPSSLSASVGDRVTITCRASENIYSNLAWYQQKPGKAPKLLIYAATSLQSGVPSRFSGSGSGTDFTLTISSLQPEDFATYYCQHLWGTPYTFGGGTKVEIK | nM | 8.4
Humanized HC1 + LC3 (PP4632) (antibody, IgG1, V domains shown, Humanized L3D10; also called H3106 + L3108) VH: QVQLQESGPGLVKPSETLSLTCTVSGFSLTSYGLSWIRQPPGKGLEWIGYIWYDGNTNFHPSLKSRVTISKDTSKNQFSLKLSSVTAADTAVYYCAKTEGHYYGSNYGYYALDYWGQGTSVTVSS VL: DIQMTQSPSSLSASVGDRVTITCRASENIYSNLAWYQQKPGKAPKLLIYAATSLQSGVPSRFSGSGSGTDFTLTISSLQPEDFATYYCQHLWGTPYTFGGGTKVEIK | nM | 12
